target: Human CB1R (Cannabinoid receptor 1) (Homo sapiens); test: CB-1 in vitro cAMP (HTRF) assay; type: cell-based; details: HEK cells, cAMP HTRF, 250 nM forskolin; mean where tested more than once; read-out: CB1 HEK_cAMP EC50
Sequence (P21554 whole entry): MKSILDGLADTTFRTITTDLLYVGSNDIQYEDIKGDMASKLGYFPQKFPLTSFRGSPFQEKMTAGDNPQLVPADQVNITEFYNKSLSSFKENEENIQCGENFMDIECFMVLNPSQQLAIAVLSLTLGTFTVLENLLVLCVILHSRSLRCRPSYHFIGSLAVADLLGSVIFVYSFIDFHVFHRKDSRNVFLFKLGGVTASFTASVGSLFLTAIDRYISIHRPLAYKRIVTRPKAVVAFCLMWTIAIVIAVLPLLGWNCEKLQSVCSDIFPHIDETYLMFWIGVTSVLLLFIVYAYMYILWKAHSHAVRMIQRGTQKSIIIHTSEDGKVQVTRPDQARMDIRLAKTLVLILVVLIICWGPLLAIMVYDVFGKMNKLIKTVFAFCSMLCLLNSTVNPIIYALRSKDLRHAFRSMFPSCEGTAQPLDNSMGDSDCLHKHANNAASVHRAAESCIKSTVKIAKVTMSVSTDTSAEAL
pEC50: −log10 of the molar value.
Endpoint Name: pEC50

O=C(O)c1ccc(CN2CCC(n3c(C4CC4)nc4ccc(C(c5ccc(Cl)cc5)c5ccc(Cl)cc5)cc43)CC2)cc1 = 7.99
COC(=O)c1ccc(OCCn2c(C3CC3)nc3ccc(C(c4ccc(Cl)cc4)c4ccc(Cl)cc4)cc32)cc1 = 7.07
O=S(=O)(N1CCC(n2c(C3CC3)nc3c(O)cc(C(c4ccc(Cl)cc4)c4ccc(Cl)cc4)cc32)CC1)C(F)(F)F = 7.51

(P) NC(=O)c1ccc(S(=O)(=O)N2CCC(n3c(C4CC4)nc4ccc(C(c5ccc(Cl)cc5)c5ccc(Cl)cc5)cc43)CC2)cc1C(F)(F)F
(Q) O=S(=O)(N1CCC(Cn2c(C3CC3)nc3ccc(C(c4ccc(Cl)cc4)c4nccs4)cc32)CC1)C(F)(F)F (centres unmarked)
(R) Nc1ccc(S(=O)(=O)N2CCC(n3c(C4CC4)nc4ccc(C(c5ccc(Cl)cc5)c5ccc(Cl)cc5)cc43)CC2)cc1
(S) CCNC(=O)N1CCC(n2c(C3CC3)nc3ccc(C(c4ccc(Cl)cc4)c4ccc(Cl)cc4)cc32)CC1
QUERY: Arrange the 4 compounds from largest to smallest pEC50. Please list the labels in the order you were asked to rank them.
RESULT: Q, S, P, R
(Q: 7.99, S: 7.73, P: 7.50, R: 7.18)

###

target: Human CB1R (Cannabinoid receptor 1) (Homo sapiens); test: CB-1 in vitro cAMP (HTRF) assay; assay type: cell-based; details: HEK cells, cAMP HTRF, 250 nM forskolin; mean where tested more than once; read-out: CB1 HEK_cAMP EC50
pEC50: −log10 of the molar value.
Endpoint Name: pEC50

O=C(O)COc1ccc(-n2c(C3CC3)nc3ccc(C(c4ccc(Cl)cc4)c4ccc(Cl)cc4)cc32)cc1 = < 5.00
O=C(O)c1cccc(CN2CCC(n3c(C4CC4)nc4ccc(C(c5ccc(F)cc5)c5ccc(F)cc5)cc43)CC2)c1 = 7.73

# input for lookup
QUERY: Identify measured pEC50 corresponding to CCOC(=O)N1CCC(n2c(C(F)(F)F)nc3ccc(C(c4ccc(Cl)cc4)c4nccs4)cc32)CC1 (stereo not drawn)
RESULT: < 5.00

###

Entries and their EC50
target: Human CB2R (Cannabinoid receptor 2) (Homo sapiens); test: CB-2 in vitro cAMP (HTRF) assay; conditions: HEK cells, cAMP HTRF, 250 nM forskolin; mean where tested more than once; read-out: CB2 HEK_cAMP EC50
Sequence (P34972 whole entry): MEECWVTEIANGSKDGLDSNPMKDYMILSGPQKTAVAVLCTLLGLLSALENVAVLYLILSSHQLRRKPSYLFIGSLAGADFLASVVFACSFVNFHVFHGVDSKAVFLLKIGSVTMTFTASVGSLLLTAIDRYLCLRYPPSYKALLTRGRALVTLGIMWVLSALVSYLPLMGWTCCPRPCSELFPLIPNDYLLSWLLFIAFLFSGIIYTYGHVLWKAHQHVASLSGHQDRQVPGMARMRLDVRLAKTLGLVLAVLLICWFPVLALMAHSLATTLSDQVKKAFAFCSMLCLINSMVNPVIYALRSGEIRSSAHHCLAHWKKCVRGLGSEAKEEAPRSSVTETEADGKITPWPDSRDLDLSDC

Below, each entry is followed by its recorded EC50 result.
NC(=O)c1ccc(S(=O)(=O)N2CCC(n3c(C4CC4)nc4ccc(C(CO)(c5ccc(Cl)cc5)c5ccc(Cl)cc5)cc43)CC2)cc1 = > 10 µM
O=S(=O)(CCN1CCNCC1)N1CCC(n2c(C3CC3)nc3ccc(C(c4ccc(Cl)cc4)c4ccc(Cl)cc4)cc32)CC1 = > 42 µM

# input for lookup
QUERY: Provide Human CB2R (Cannabinoid receptor 2) (Homo sapiens) EC50 reading for Clc1ccc(C(c2ccc3nc(C4CC4)n(C4Cc5ccccc5C4)c3c2)c2nccs2)cc1 (stereo not drawn) .
RESULT: > 10 µM
